Hi there, I'd appreciate the recorded normalized growth for every entry that follows.
- assay overview: chemical genetic growth profiling, strain panel (AID 1159580);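 also: tested at 20 µM; growth read once vehicle control cultures reached saturation at 30 °C; 1 = growth at the plate median or of vehicle wells; lower values mean less growth of the strain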
- measurement setup: S. cerevisiae deletion strains, growth OD, locus YCL011C, strain gbp2, hits give low values
The campaign covered roughly 5,500 compounds. About 2,000 (36%) were called active. Another 18% or so got no clear call; they are omitted. The list shows a part of the results.
Give the figure by itself; no unit, no explanation.

Consider N=c1ccn2c(n1)O[C@@H]1C2O[C@H](CO)[C@H]1O (stereo not given in full) . Its measured normalized growth is 0.984

For reference, reported normalized growth for "CCCCNc1cc(C(=O)O)cc(S(N)(=O)=O)c1Oc1ccccc1" stands at 1

The compound "CC(=O)O[C@H]1[C@@H]2[C@@H](OC(=O)Cc3ccccc3)[C@@H](C)C[C@]2(OC(C)=O)C(=O)/C(C)=C/[C@H]2[C@H](CC[C@@]13CO3)C2(C)C" showed normalized growth equal to 0.979

response.value for "CCOC(=O)C(C)(C)Oc1ccc(Cl)cc1" (field: normalized growth) = 0.991

For this compound ( COCCc1ccc(OCC(O)CNC(C)C)cc1 (stereo not given) ), measured normalized growth is 0.96
